Values from ChEMBL document CHEMBL4699429

# target or test system: Amine oxidase [flavin-containing] A (Homo sapiens)
# Sequence (P21397 whole entry): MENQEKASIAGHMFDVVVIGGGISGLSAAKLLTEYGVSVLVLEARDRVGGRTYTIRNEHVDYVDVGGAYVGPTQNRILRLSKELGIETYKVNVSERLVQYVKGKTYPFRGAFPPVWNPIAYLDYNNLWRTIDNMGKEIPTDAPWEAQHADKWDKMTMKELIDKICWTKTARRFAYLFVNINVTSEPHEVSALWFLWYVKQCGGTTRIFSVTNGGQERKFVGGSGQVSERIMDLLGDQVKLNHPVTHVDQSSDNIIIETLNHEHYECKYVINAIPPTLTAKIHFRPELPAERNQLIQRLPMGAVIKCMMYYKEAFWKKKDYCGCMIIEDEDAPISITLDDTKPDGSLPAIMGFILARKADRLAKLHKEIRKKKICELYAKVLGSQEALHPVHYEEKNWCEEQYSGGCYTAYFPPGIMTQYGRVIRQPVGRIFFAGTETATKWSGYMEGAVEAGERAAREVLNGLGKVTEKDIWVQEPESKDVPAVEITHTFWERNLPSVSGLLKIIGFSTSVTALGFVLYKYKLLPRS
# procedure text: Inhibition of human recombinant MAO-A at 0.01 nM using tyramine as substrate preincubated with enzyme for 30 mins followed by incubation with substrate for 30 mins by Amplex Red reagent based fluorometric method relative to control
# cond: 0.5 h, time 60 min
measurement name: inhibition at 10 pM

Q) Input `C#CCN(C)CCCOc1ccc(Cl)cc1Cl` , output reported inhibition at 10 pM.
A) 11.3%

Q) Please report inhibition at 10 pM for the following compound: `CC(C)Nc1nnc(SCC(=O)N(Cc2cccc([N+](=O)[O-])c2)c2ccc(F)cc2)s1`
A) 6.87%

Q) Please look at this compound and report its inhibition at 10 pM: `CCNc1nnc(SCC(=O)N(Cc2cccc([N+](=O)[O-])c2)c2ccc(F)cc2)s1`
A) 10.3%

Q) Retrieve inhibition at 10 pM measured for `C=CCNc1nnc(SCC(=O)N(Cc2cccc([N+](=O)[O-])c2)c2ccc(F)cc2)s1` and print it.
A) 10.2%

Q) State its inhibition at 10 pM for this compound: O=C(NCCN1CCOCC1)c1ccc(Cl)cc1 [MOCLOBEMIDE]
A) 7.25%

Q) State, in one line, measured inhibition at 10 pM of `CCCCNc1nnc(SCC(=O)N(Cc2cccc([N+](=O)[O-])c2)c2ccc(F)cc2)s1`
A) 6.94%

Q) Give a short answer stating reported inhibition at 10 pM for `COCCNc1nnc(SCC(=O)N(Cc2cccc([N+](=O)[O-])c2)c2ccc(F)cc2)s1` .
A) 13.5%

Q) Please list inhibition at 10 pM recorded for the compound `CC(C)CNc1nnc(SCC(=O)N(Cc2cccc([N+](=O)[O-])c2)c2ccc(F)cc2)s1`
A) 6.36%

Q) Give reported inhibition at 10 pM value for `CCCNc1nnc(SCC(=O)N(Cc2cccc([N+](=O)[O-])c2)c2ccc(F)cc2)s1`
A) 8.5%

###

# target or test system: Amine oxidase [flavin-containing] A (Homo sapiens)
# procedure text: Inhibition of human recombinant MAO-A at 0.01 uM using tyramine as substrate preincubated with enzyme for 30 mins followed by incubation with substrate for 30 mins by Amplex Red reagent based fluorometric method relative to control
# cond: 0.5 h, time 60 min
measurement name: inhibition at 0.01 µM (%)
Value expressed in %; do not type the unit.

Q) Provide measured inhibition at 0.01 µM value, entry: `CCCCNc1nnc(SCC(=O)N(Cc2cccc([N+](=O)[O-])c2)c2ccc(F)cc2)s1`
A) 30

Q) Given the compound `COCCNc1nnc(SCC(=O)N(Cc2cccc([N+](=O)[O-])c2)c2ccc(F)cc2)s1` , write its reported inhibition at 0.01 µM.
A) 34.7

Q) Supply recorded inhibition at 0.01 µM for `CC(C)Nc1nnc(SCC(=O)N(Cc2cccc([N+](=O)[O-])c2)c2ccc(F)cc2)s1` here.
A) 23.9

Q) Give reported inhibition at 0.01 µM value for `CCCNc1nnc(SCC(=O)N(Cc2cccc([N+](=O)[O-])c2)c2ccc(F)cc2)s1`
A) 25.1

Q) Input O=C(NCCN1CCOCC1)c1ccc(Cl)cc1 [MOCLOBEMIDE] , output reported inhibition at 0.01 µM.
A) 19.6

Q) Consider the compound C#CCN(C)CCCOc1ccc(Cl)cc1Cl [CLORGILINE] and give its recorded inhibition at 0.01 µM.
A) 35.3

Q) Output inhibition at 0.01 µM of `C=CCNc1nnc(SCC(=O)N(Cc2cccc([N+](=O)[O-])c2)c2ccc(F)cc2)s1`
A) 32.7

Q) Supply inhibition at 0.01 µM value. Item: `CCNc1nnc(SCC(=O)N(Cc2cccc([N+](=O)[O-])c2)c2ccc(F)cc2)s1`
A) 30.3

Q) Read off the recorded inhibition at 0.01 µM for `CC(C)CNc1nnc(SCC(=O)N(Cc2cccc([N+](=O)[O-])c2)c2ccc(F)cc2)s1`
A) 25.5

###

# target or test system: Amine oxidase [flavin-containing] A (Homo sapiens, UniProt P21397)
# procedure text: Inhibition of human recombinant MAO-A at 100 uM using tyramine as substrate preincubated with enzyme for 30 mins followed by incubation with substrate for 30 mins by Amplex Red reagent based fluorometric method relative to control
# cond: 0.5 h, time 60 min
Could you please report measured inhibition at 100 µM for the items listed next?
// units = %; emit number, no label

Q) Name the recorded inhibition at 100 µM of the molecule listed here: `COCCNc1nnc(SCC(=O)N(Cc2cccc([N+](=O)[O-])c2)c2ccc(F)cc2)s1`
A) 91.5

Q) Name the recorded inhibition at 100 µM of the item `C=CCNc1nnc(SCC(=O)N(Cc2cccc([N+](=O)[O-])c2)c2ccc(F)cc2)s1` in your answer.
A) 86.4

Q) Kindly indicate its recorded inhibition at 100 µM. Item: `CCCCNc1nnc(SCC(=O)N(Cc2cccc([N+](=O)[O-])c2)c2ccc(F)cc2)s1`
A) 82.3

Q) Report inhibition at 100 µM, nothing else, for this molecule: `CC(C)Nc1nnc(SCC(=O)N(Cc2cccc([N+](=O)[O-])c2)c2ccc(F)cc2)s1`
A) 89.1

Q) Complete the entry with inhibition at 100 µM for `Cc1ccc(Nc2nnc(SCC(=O)N(Cc3cccc([N+](=O)[O-])c3)c3ccc(F)cc3)s2)cc1`
A) 42.7

Q) State, in one line, measured inhibition at 100 µM of `CCNc1nnc(SCC(=O)N(Cc2cccc([N+](=O)[O-])c2)c2ccc(F)cc2)s1`
A) 89.5

###

Please provide measured inhibition at 0.001 µM for the entries that follow.
# target or test system: Amine oxidase [flavin-containing] A (Homo sapiens, UniProt P21397)
# procedure text: Inhibition of human recombinant MAO-A at 1 nM using tyramine as substrate preincubated with enzyme for 30 mins followed by incubation with substrate for 30 mins by Amplex Red reagent based fluorometric method relative to control
# cond: 0.5 h, time 60 min
Note: unit % is implicit; provide only the numeric part.

Q) Param request: inhibition at 0.001 µM | system Amine oxidase [flavin-containing] A (Homo sapiens, UniProt P21397) | item `CCCNc1nnc(SCC(=O)N(Cc2cccc([N+](=O)[O-])c2)c2ccc(F)cc2)s1`
A) 20.5

Q) Report value: inhibition at 0.001 µM, system: Amine oxidase [flavin-containing] A (Homo sapiens, UniProt P21397), compound: `CC(C)CNc1nnc(SCC(=O)N(Cc2cccc([N+](=O)[O-])c2)c2ccc(F)cc2)s1`
A) 17.3

Q) Enter recorded inhibition at 0.001 µM with Amine oxidase [flavin-containing] A (Homo sapiens, UniProt P21397) for `C=CCNc1nnc(SCC(=O)N(Cc2cccc([N+](=O)[O-])c2)c2ccc(F)cc2)s1` here.
A) 20.5

Q) Find inhibition at 0.001 µM for `CCCCNc1nnc(SCC(=O)N(Cc2cccc([N+](=O)[O-])c2)c2ccc(F)cc2)s1` on Amine oxidase [flavin-containing] A (Homo sapiens, UniProt P21397) and write it down.
A) 19.7

Q) Retrieve inhibition at 0.001 µM on Amine oxidase [flavin-containing] A (Homo sapiens, UniProt P21397); query O=C(NCCN1CCOCC1)c1ccc(Cl)cc1 [MOCLOBEMIDE]
A) 15.4

Q) Under Amine oxidase [flavin-containing] A (Homo sapiens, UniProt P21397), report inhibition at 0.001 µM for `CC(C)Nc1nnc(SCC(=O)N(Cc2cccc([N+](=O)[O-])c2)c2ccc(F)cc2)s1`
A) 13.6

Q) Answer briefly: inhibition at 0.001 µM recorded on Amine oxidase [flavin-containing] A (Homo sapiens, UniProt P21397) for C#CCN(C)CCCOc1ccc(Cl)cc1Cl [CLORGILINE]
A) 21.7

Q) Please report the measured inhibition at 0.001 µM for `CCNc1nnc(SCC(=O)N(Cc2cccc([N+](=O)[O-])c2)c2ccc(F)cc2)s1` tested on Amine oxidase [flavin-containing] A (Homo sapiens, UniProt P21397).
A) 21

Q) Send back Amine oxidase [flavin-containing] A (Homo sapiens, UniProt P21397) inhibition at 0.001 µM of `COCCNc1nnc(SCC(=O)N(Cc2cccc([N+](=O)[O-])c2)c2ccc(F)cc2)s1` only.
A) 26.9
